systemTested: TRPM8 (Rattus norvegicus, UniProt Q8R455)
Construct: from tissue; host or cells: whole animal, female SD rats (in vivo)
Sequence (Q8R455 whole entry): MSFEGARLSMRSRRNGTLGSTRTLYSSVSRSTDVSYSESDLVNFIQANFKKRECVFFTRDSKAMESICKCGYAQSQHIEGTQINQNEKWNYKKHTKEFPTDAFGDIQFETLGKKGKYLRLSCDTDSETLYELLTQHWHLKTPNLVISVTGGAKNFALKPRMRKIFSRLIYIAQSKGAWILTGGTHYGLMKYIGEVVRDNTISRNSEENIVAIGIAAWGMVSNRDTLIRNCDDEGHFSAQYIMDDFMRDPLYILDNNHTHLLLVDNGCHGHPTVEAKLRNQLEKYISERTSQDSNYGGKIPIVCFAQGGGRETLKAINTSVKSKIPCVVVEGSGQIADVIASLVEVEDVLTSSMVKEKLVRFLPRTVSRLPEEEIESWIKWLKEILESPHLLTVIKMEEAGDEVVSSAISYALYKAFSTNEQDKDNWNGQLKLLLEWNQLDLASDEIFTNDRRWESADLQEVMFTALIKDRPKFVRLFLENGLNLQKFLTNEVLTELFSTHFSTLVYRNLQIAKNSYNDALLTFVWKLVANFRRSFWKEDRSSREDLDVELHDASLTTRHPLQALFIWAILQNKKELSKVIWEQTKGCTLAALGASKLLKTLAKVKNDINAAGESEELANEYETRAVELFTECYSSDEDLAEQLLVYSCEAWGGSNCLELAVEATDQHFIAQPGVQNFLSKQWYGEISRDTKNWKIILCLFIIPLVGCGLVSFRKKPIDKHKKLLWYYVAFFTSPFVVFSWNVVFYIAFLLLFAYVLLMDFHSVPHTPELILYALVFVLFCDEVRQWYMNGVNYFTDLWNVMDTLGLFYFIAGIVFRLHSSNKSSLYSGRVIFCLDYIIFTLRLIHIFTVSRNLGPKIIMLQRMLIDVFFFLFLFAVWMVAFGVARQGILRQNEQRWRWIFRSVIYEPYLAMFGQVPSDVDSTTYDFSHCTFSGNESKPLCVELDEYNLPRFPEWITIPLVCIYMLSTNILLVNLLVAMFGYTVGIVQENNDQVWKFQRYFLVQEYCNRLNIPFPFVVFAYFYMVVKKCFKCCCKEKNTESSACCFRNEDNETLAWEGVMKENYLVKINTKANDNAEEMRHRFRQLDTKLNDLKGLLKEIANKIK
assayProcedure: Confirmation test of inhibitory effects on icilin-induced wet-dog shakes
Assay type: in vivo
experimentalConditions: female SD rats, oral dose 3 mg/kg, icilin 1 mg/kg i.p. 1 hour after dosing, shakes counted for 5 minutes
property: % inhibition of Wet-Dog Shake (%)

The cases that follow already have their % inhibition of Wet-Dog Shake on record.
compound	% inhibition of Wet-Dog Shake, %
CC(CO)[C@@H](Cc1ccccn1)NC(=O)c1cccc(F)c1-c1cc(-c2ccc(Cl)cc2)[nH]n1 (some centres unmarked) [Example 1-162]	48
C[C@@](Cc1ccccn1)(NC(=O)c1cccc(F)c1-c1cc(-c2ccc(F)cc2)[nH]n1)C(N)=O [Example 24-7]	56
CC(c1ccccn1)[C@@H](NC(=O)c1cccc(F)c1-c1cc(-c2ccc(F)cc2)[nH]n1)[C@H](O)CO (some centres unmarked) [Example 54-14]	77
O=C(N[C@@H](CO)Cc1ncccn1)c1cccc(F)c1-c1cc(-c2ccc(F)cc2)[nH]n1 [Example 1-174]	60

A = Cc1cccnc1C[C@H](CCO)NC(=O)c1cccc(F)c1-c1cc(-c2ccc(F)cc2)[nH]n1 [Example 1-117]
B = O=C(N[C@@H](CO)C(O)c1ccccn1)c1ccccc1-c1n[nH]c(-c2ccc(F)cc2)c1F (some centres unmarked) [Example 1-205]
Request: Response body: label of entry with the larger % inhibition of Wet-Dog Shake; valid values A , B . Indicate which entry you chose by stating its label.
Result: B
(B: 70%, A: 46%)

I = O=C(N[C@@H](CO)Cc1ncccc1Cl)c1cccc(F)c1-c1cc(-c2ccc(F)cc2)[nH]n1 [Example 39-2]
II = O=C1OC[C@H]([C@@H](Cc2ccccn2)NC(=O)c2cccc(F)c2-c2cc(-c3ccc(F)cc3)[nH]n2)O1 [Example 47-2]
Request: Param pair: I , II . Output: the one whose % inhibition of Wet-Dog Shake is numerically greater. Please identify the chosen entry by its label.
Result: II

I = CC(c1ccccn1)[C@H](CCO)NC(=O)c1cccc(F)c1-c1cc(-c2ccc(F)cc2)[nH]n1 (some centres unmarked) [Example 1-138]
II = O=C(N[C@H](Cn1cccn1)[C@H](O)CO)c1cccc(F)c1-c1cc(-c2ccc(F)cc2)[nH]n1 [Example 1-226]
Request: Select the item whose % inhibition of Wet-Dog Shake value is smaller, choosing between I and II . Give the chosen item's label as your response.
Result: II
(II: 53%, I: 100%)
